- target-of-assay: human MC3R (Homo sapiens)
- Construct: expressed in transfected cells; host or cells: HEK-293 cells stably expressing the GScAMP22F split-luciferase cAMP sensor (parent reporter line from Promega); MC3R clone generated in-house, G418 selection
- Sequence (P41968 whole entry): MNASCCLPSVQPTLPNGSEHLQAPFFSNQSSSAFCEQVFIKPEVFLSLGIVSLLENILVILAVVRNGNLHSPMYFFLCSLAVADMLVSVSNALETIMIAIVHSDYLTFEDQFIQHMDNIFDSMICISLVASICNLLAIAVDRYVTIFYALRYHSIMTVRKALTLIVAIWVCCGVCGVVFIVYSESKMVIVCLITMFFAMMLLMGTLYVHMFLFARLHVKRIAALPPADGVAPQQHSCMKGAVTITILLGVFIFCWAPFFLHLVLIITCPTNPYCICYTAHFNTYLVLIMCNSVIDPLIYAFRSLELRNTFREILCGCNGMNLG
- experiment-summary: split-luciferase cAMP sensor assay, agonist mode (measurement window 1), hMC3R
- Type: cell-based
- setup-conditions: % maximal activation, agonist mode; read-out: MC3R cAMP % max activation
Positions of bridges follow the written chain, without caps; N, C: chain ends. Non-standard residues stand in square brackets, D forms with d. Residues, ends and D or L forms follow the SMILES beside them. 1Nal = N[C@@H](Cc1cccc2ccccc12)C(=O)O; Nle = CCCC[C@H](N)C(=O)O; Aib = CC(C)(N)C(=O)O
I'd be grateful if you could share measured Emax for these entries.
Give bare numbers, in %.

compound	test-readout	observed-value
CCCC[C@H](NC(=O)[C@H](CCCNC(=N)N)NC(C)=O)C(=O)N[C@H]1CSSC[C@@H](C(N)=O)NC(=O)[C@H](Cc2c[nH]c3ccccc23)NC(=O)[C@H](CCCNC(=N)N)NC(=O)[C@H](Cc2cccc3ccccc23)NC(=O)[C@H](Cc2c[nH]cn2)NC1=O [CTX-1610] (Ac-R[Nle]CH[1Nal]RWC-NH2; disulfide 3-8)	Emax	67

--- query ---
Short answer for CC(=O)N[C@@H](CCCNC(=N)N)C(=O)N[C@H]1CSSC[C@@H](C(N)=O)NC(=O)[C@H](Cc2ccccc2)NC(=O)[C@H](CCCNC(=N)N)NC(=O)[C@@H](Cc2ccccc2)NC(=O)[C@H](CCCNC(=N)N)NC(=O)C(C)(C)NC1=O [CTX-1601, Arg-cyclo(Cys-Aib-Arg-D-Phe-Arg-Phe-Cys)] (Ac-RC[Aib]R[dF]RFC-NH2; disulfide 2-8) : Emax was 73
